Recorded values, source PubChem BioAssay AID1159580.

assay: chemical genetic growth profiling, strain panel (AID 1159580);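 note: tested at 20 µM; growth read once vehicle control cultures reached saturation at 30 °C; 1 = growth at the plate median or of vehicle wells; lower values mean less growth of the strain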; conditions: S. cerevisiae deletion strains, growth OD, locus YLR371W, strain rom2
Out of some 5,500 compounds screened, about 2,000 (36%) were called active. Inconclusive results (about 18%) are left out. Cut-off read from the data, not from the text of the source: active = normalized growth mostly below about 0.91 (no sharp cut-off); inconclusive = no clear call, values can overlap the other calls; inactive = mostly above about 0.92. The list shows a part of the results.
Bench note: report the call from active, inactive

Use these answered entries as a reference point.
> print(dat)
                                   molecule  assigned.class
1  COc1cc(-c2coc3cc(OCc4ccccc4)c(OC)c(O)c3c2=O)cc(O)c1OC          active
2  C=C1CCC(=O)C(C)CCC2C1CC2(C)C (stereo not given)        inactive
3  COc1cc(-c2coc3cc(OC)c(OC)c(OC)c3c2=O)cc(OC)c1OC        inactive
4  COc1cc(-c2coc3cc(OCc4ccccc4)c(OC)c(O)c3c2=O)cc(OCc2ccccc2)c1OC        inactive

Now for another entry.
(Q) Look up the recorded call for COc1cc2occ(-c3ccccc3)c(=O)c2c(OC)c1C in this test.
(A) inactive

###

assay: chemical genetic growth profiling, strain panel (AID 1159580); conditions: S. cerevisiae deletion strains, growth OD, locus YDR388W, active compounds read low
The whole screen tested about 5,500 compounds, of which about 2,000 (36%) were called active. About 18% were inconclusive and are not listed. This is one part of the list.
Assignment: determine reported normalized growth for the given compounds.

Solved cases (5 shown):
> print(dat)
                                   compound  measured.quantity    recorded.value
1  CO/N=C(\C(=O)N[C@@H]1C(=O)N2C(C(=O)O)=C(COC(C)=O)CS[C@H]12)c1csc(N)n1  normalized growth  0.992 (inactive)
2  CC1=CC2C(CC1=O)C(C)=CCC2C(C)C (configuration not stated)  normalized growth  0.987 (inactive)
3  CC1(C)NC(=O)N(c2ccc([N+](=O)[O-])c(C(F)(F)F)c2)C1=O  normalized growth  0.983 (inactive)
4  CC(C)C(C)/C=C/C(C)[C@H]1CCC2C3=CCC4CC(=O)CC[C@]4(C)C3CC[C@@]21C (some centres not stated)  normalized growth   1.01 (inactive)
5                               OCc1ccccc1O  normalized growth  0.991 (inactive)

Respectfully, I request normalized growth for each entry included below.
1. CC(C)(C)CC(C)(C)c1ccc(O)c(Cc2ccc(Cl)cc2Cl)c1
2. NC[C@@H]1CC[C@@H](N)[C@@H](O[C@H]2[C@H](O)[C@@H](O[C@H]3O[C@H](CO)[C@@H](O)[C@H](N)[C@H]3O)[C@H](N)C[C@@H]2N)O1
3. Clc1cccc(Cl)c1NC1=NCCN1
4. CC(C)C(C)/C=C/C(C)C1CCC2C3=CC=C4CC(O)CCC4(C)C3CCC21C (configuration not stated)
5. Cc1cccc(C)c1NC1=NCCCS1
6. O=C1NC(=O)C(=O)C(=O)N1
7. COc1ccc2c(c1)CCC(c1ccccc1)=C2c1ccc(OCCN2CCCC2)cc1
8. CC(C)NNC(=O)c1ccncc1

(A)
1. 1.01 (inactive)
2. 1 (inactive)
3. 1.01 (inactive)
4. 1 (inactive)
5. 0.994 (inactive)
6. 0.98 (inactive)
7. 0.181 (active)
8. 1.01 (inactive)

// each listed compound needs a value for normalized growth
1. CC1(C)C2CC(=O)[C@]3(C)C(CC[C@@]4(C)[C@H](c5ccoc5)OC(=O)[C@H]5O[C@]543)[C@@]2(C)C=C[C@@H]1O (some centres not stated)
2. CC(=O)OC1CCC2(C)C(=CC=C3C2CCC2(C)C3CCC2C(C)/C=C/C(C)C(C)C)C1(C)C (configuration not stated)
3. COc1ccc2c(c1OC)C(=O)OC2[C@H]1c2c(cc3c(c2OC)OCO3)CCN1C (some centres not stated)
4. CC(C)C(=O)Nc1ccc([N+](=O)[O-])c(C(F)(F)F)c1
5. O=C(Cn1ccnc1[N+](=O)[O-])NCCO
6. O=C1CC2OCC=C3CN4CC[C@]56c7ccccc7N1C5[C@H]2[C@H]3CC46 (some centres not stated)
7. COc1ccc2c(c1)O[C@H]1c3ccc(OC)cc3OC[C@@H]21

(A)
1. 1.01 (inactive)
2. 1.02 (inactive)
3. 0.985 (inactive)
4. 0.961 (inactive)
5. 1.01 (inactive)
6. 1 (inactive)
7. 0.956 (inactive)

For each of the compounds below, state normalized growth.
1. OC(Cn1cncn1)(Cn1cncn1)c1ccc(F)cc1F
2. CC(C)COCC(CN(Cc1ccccc1)c1ccccc1)N1CCCC1 (configuration not stated)

(A)
1. 1 (inactive)
2. 0.814 (active)

###

assay: chemical genetic growth profiling, strain panel (AID 1159580);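 note: tested at 20 µM; growth read once vehicle control cultures reached saturation at 30 °C; 1 = growth at the plate median or of vehicle wells; lower values mean less growth of the strain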; details: S. cerevisiae deletion strains, growth OD, locus YKL193C, strain SDS22, active compounds read low
Screen size: about 5,500 compounds; about 2,000 (36%) were called active. Roughly 18% stayed inconclusive and do not appear here. This is one part of the list.
I'd be grateful if you could share measured normalized growth for these entries.
Give bare numbers.

As a guide, the following entries are already answered.
> print(dat)
                         structure.notation  measured.quantity  recorded.value
1  CC1(C)OC(=O)C(=Cc2cccn2-c2ccc(OC(F)(F)F)cc2)C(=O)O1  normalized growth           0.973
2  FC(F)(F)c1ccnc(N2CCCN(C(=S)Nc3ccc(Cl)cc3Cl)CC2)n1  normalized growth           0.978

Dear reader, for each entry below, please note its normalized growth.
1. O=c1c2ccccc2[nH]c(=S)n1-c1cccc(C(F)(F)F)c1
2. CC1(C)OC(=O)C(=Cc2cccn2-c2ccc(C(F)(F)F)cc2)C(=O)O1
3. O=C(Nc1ccc(OC(F)(F)F)cc1)OC1CN(C(c2ccccc2)c2ccccc2)C1

(A)
0.917
1.02
1.01

###

assay: chemical genetic growth profiling, strain panel (AID 1159580);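 note: tested at 20 µM; growth read once vehicle control cultures reached saturation at 30 °C; 1 = growth at the plate median or of vehicle wells; lower values mean less growth of the strain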; conditions: S. cerevisiae deletion strains, growth OD, locus YAL013W, strain DEP1
Hit rate of the full screen: of about 5,500 compounds, about 2,000 (36%) were called active. Not shown: some 18% with an inconclusive outcome. Rule as the data show it: active = normalized growth mostly below about 0.91 (no sharp cut-off); inconclusive = no clear call, values can overlap the other calls; inactive = mostly above about 0.92. This is one part of the list.
// allowed return values: active, inactive

> print(dat)
                                   compound  assigned.class
1                        Cc1cccc(C(=O)O)c1O        inactive
2  Cc1ccc(NS(C)(=O)=O)cc1N=Cc1ccc(Cl)c(Cl)c1        inactive

(Q) # lookup: test call for C=C1CCC2C(CC2(C)C)C(=O)CCC1O (configuration not stated)
(A) inactive

(Q) // query: C=C1CCC(=O)C(C)CCC2C1CC2(C)C (configuration not stated)
(A) inactive

(Q) Now the compound CC(=O)Oc1c(C)cccc1C(=O)O
(A) inactive

(Q) Cc1ccc(Cl)c(Nc2ccccc2C(=O)O)c1Cl ?
(A) inactive

(Q) Quick one: COc1nc(C)nc(Cl)c1NC1=NCCN1
(A) inactive

(Q) And for Oc1cc2c(cc1O)CN(C(=S)NCCc1ccc(Cl)cc1)CCC2 ?
(A) active

(Q) Would you mind doing O=C1OC(c2ccc(O)cc2)(c2ccc(O)cc2)c2ccccc21 as well?
(A) inactive

(Q) Query Cc1nc(-c2ccc(S(=O)(=O)N3CCN(c4ncnc5scc(-c6ccccc6)c45)CC3)s2)cs1 next
(A) inactive

(Q) And O=c1cc[nH]c(=S)[nH]1 ?
(A) inactive

(Q) Further, for C=C1C(=O)O[C@@H]2C3O[C@]3(C)CC/C=C(\C)CC[C@@H]12 (some centres not stated) ?
(A) active

###

assay: chemical genetic growth profiling, strain panel (AID 1159580);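 note: tested at 20 µM; growth read once vehicle control cultures reached saturation at 30 °C; 1 = growth at the plate median or of vehicle wells; lower values mean less growth of the strain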; settings: S. cerevisiae deletion strains, growth OD, locus YCL029C, strain bik1
Hit rate of the full screen: of about 5,500 compounds, about 2,000 (36%) were called active. About 18% were inconclusive and are not listed. Rule as the data show it: active = normalized growth mostly below about 0.91 (no sharp cut-off); inconclusive = no clear call, values can overlap the other calls; inactive = mostly above about 0.92. Some of the results follow.
Allowed answers: active, inactive

(Q) Please share the test call associated with CCCCN(CCCC)CCCOC(=O)c1ccc(N)cc1 .
(A) inactive

(Q) Same read-out for CC1C[C@H]2CC(=O)[C@H]3CCCN4CCC[C@H]2[C@]34C1 (some centres not stated) ?
(A) inactive

(Q) And for CC[C@H](C)C(=O)O[C@H]1C[C@@H](C)C=C2C=C[C@H](C)[C@H](CC[C@@H]3C[C@@H](O)CC(=O)O3)[C@H]21 ?
(A) inactive

(Q) Queued: C=C1C(=O)O[C@@H]2C3O[C@]3(C)CC/C=C(\C)CC[C@@H]12 (some centres not stated)
(A) active

(Q) Can you handle CCCCCCOc1ccccc1C(N)=O next?
(A) active

(Q) Another: CCNC(=O)CC[C@H](N)C(=O)O
(A) inactive

(Q) Please give the result for CCCCOC(=O)c1ccccc1C(=O)OCc1ccccc1 too.
(A) inactive
